Measured On: T1, wildtype feline IL-31 protein (Feline_IL31_wildtype) (feline)
T1 construct: Full length feline IL-31 with C-terminal His tag, secreted from ExpiCHO cells; also called fIL-31
T1 chain: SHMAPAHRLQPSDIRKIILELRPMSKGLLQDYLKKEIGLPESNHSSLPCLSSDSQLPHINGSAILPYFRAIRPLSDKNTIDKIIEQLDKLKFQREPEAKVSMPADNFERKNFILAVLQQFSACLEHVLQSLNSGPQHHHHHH
Assay Text: SPR (Biacore), IL-31 on chip, 1:1 fit
Metric: Kd
Field note: include the unit after the figure.

Indicate its recorded Kd; the binder in question is mouse anti IL-31 antibody 11E12 (antibody, V domains shown, Mouse monoclonal comparison antibody; also called MU-11E12; mouse 11E12) VH: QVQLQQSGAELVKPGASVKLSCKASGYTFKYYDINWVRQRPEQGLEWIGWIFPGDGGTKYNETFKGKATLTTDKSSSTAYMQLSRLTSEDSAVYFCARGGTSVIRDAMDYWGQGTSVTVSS VL: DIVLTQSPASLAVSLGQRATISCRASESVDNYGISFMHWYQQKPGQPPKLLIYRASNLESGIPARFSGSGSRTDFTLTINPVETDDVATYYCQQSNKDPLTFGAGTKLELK
0.738 nM

This collection of values is drawn from patent US20250136677A1.
